- Test system: MDCK cells
- Test Protocol: Cytotoxicity against MDCK cells by CPE assay
- Assay type: cell-based
Field: TC50 (Antiviral activity against H3N2 virus section). Provide a value for each of the compounds that follow.
Unit µM implied. Number only.

Lookup: Entry under review: `CC1=C2CC[C@@H](C)C[C@@]2(OC(=O)c2ccc(C(F)(F)F)cc2)OC1=O` . Reported TC50 (Antiviral activity against H3N2 virus section)?
Found: 75.4

Lookup: TC50 (Antiviral activity against H3N2 virus section) for `CC1=C2CC[C@@H](C)C[C@]2(OC(=O)c2cccc(F)c2)OC1=O` ?
Found: 96.4

Lookup: What measured TC50 (Antiviral activity against H3N2 virus section) goes with `CC1=C2CC[C@@H](C)C[C@]2(OC(=O)c2ccc([N+](=O)[O-])cc2)OC1=O` ?
Found: 216.0

Lookup: Form field: reported TC50 (Antiviral activity against H3N2 virus section) of `CCC(=O)O[C@@]12C[C@H](C)CCC1=C(C)C(=O)O2`
Found: 39.1

Lookup: Consider the compound shown here: `CO[C@@]12C[C@H](C)CCC1=C(C)C(=O)O2` What is its recorded TC50 (Antiviral activity against H3N2 virus section)?
Found: 298.5

Lookup: Give the measured TC50 (Antiviral activity against H3N2 virus section) of `CC1=C2CC[C@@H](C)C[C@]2(OC(=O)c2cccc(I)c2)OC1=O` .
Found: 71.1

Lookup: What TC50 (Antiviral activity against H3N2 virus section) value was documented for this compound, `CC1=C2CC[C@@H](C)C[C@]2(OC(=O)c2ccc(I)cc2)OC1=O` ?
Found: 41.3

Lookup: Which measured TC50 (Antiviral activity against H3N2 virus section) value corresponds to `CC1=C2CC[C@@H](C)C[C@]2(OC(=O)c2cccc(Br)c2)OC1=O` ?
Found: 80.3

Lookup: Using the record for `CC1=C2CC[C@@H](C)C[C@@]2(OC(=O)c2ccccc2Br)OC1=O` , report its TC50 (Antiviral activity against H3N2 virus section).
Found: 71.0

Lookup: Query: TC50 (Antiviral activity against H3N2 virus section); subject: `CC(=O)O[C@@]12C[C@H](C)CCC1=C(C)C(=O)O2`
Found: 319.2

Lookup: What value of measured TC50 (Antiviral activity against H3N2 virus section) is listed for `CC1=C2CC[C@@H](C)C[C@@]2(OC(=O)c2cccnc2)OC1=O` ?
Found: 180.5

Lookup: Consider the compound `CC1=C2CC[C@@H](C)C[C@@]2(O)OC1=O` and give its measured TC50 (Antiviral activity against H3N2 virus section).
Found: 829.4

Lookup: Tell me the measured TC50 (Antiviral activity against H3N2 virus section) of `CC1=C2CC[C@@H](C)C[C@]2(OC(=O)c2ccc(F)cc2)OC1=O` , please.
Found: 60.5

Lookup: TC50 (Antiviral activity against H3N2 virus section) for `CC1=C2CC[C@@H](C)C[C@]2(OC(=O)c2ccccc2)OC1=O` ?
Found: 54.2
